Kindly state IC50 for each of the entries shown.
Tested on: HepG2
protocolText: Antiproliferative activity against human HepG2 cells after 48 hrs by MTT assay
Type: functional, cell-based
conditionContext: HepG2, 48 h
Hi! Could you send only the number? It should be in µM, unit omitted.

Recorded result, COC(=O)c1cc(OC)c2c(c1-c1c(C(=O)N[C@@H](C)C(=O)OCCCCOc3no[n+]([O-])c3S(=O)(=O)c3ccccc3)cc(OC)c3c1OCO3)OCO2 , IC50: 1.21

Recorded result, COC(=O)c1cc(OC)c2c(c1-c1c(C(=O)N[C@@H](C)C(=O)OCCCOc3no[n+]([O-])c3S(=O)(=O)c3ccccc3)cc(OC)c3c1OCO3)OCO2 , IC50: 1.25

Recorded result, COC(=O)c1cc(OC)c2c(c1-c1c(C(=O)NCCC(=O)OCCCOc3no[n+]([O-])c3S(=O)(=O)c3ccccc3)cc(OC)c3c1OCO3)OCO2 , IC50: 1.14

Recorded result, COC(=O)c1cc(OC)c2c(c1-c1c(C(=O)NCCC(=O)OCCCCOc3no[n+]([O-])c3S(=O)(=O)c3ccccc3)cc(OC)c3c1OCO3)OCO2 , IC50: 1.36

Recorded result, COC(=O)c1cc(OC)c2c(c1-c1c(C(=O)NCCC(=O)OCCOCCOc3no[n+]([O-])c3S(=O)(=O)c3ccccc3)cc(OC)c3c1OCO3)OCO2 , IC50: 1.88

Recorded result, COC(=O)c1cc(OC)c2c(c1-c1c(C(=O)NCCC(=O)NCCOc3no[n+]([O-])c3S(=O)(=O)c3ccccc3)cc(OC)c3c1OCO3)OCO2 , IC50: 1.25

Recorded result, COC(=O)c1cc(OC)c2c(c1-c1c(C(=O)NCCC(=O)OC(C)CCOc3no[n+]([O-])c3S(=O)(=O)c3ccccc3)cc(OC)c3c1OCO3)OCO2 (stereo unspecified) , IC50: 1.15

Recorded result, COC(=O)c1cc(OC)c2c(c1-c1c(C(=O)N[C@@H](C)C(=O)OCCOCCOc3no[n+]([O-])c3S(=O)(=O)c3ccccc3)cc(OC)c3c1OCO3)OCO2 , IC50: 1.49

Recorded result, COC(=O)c1cc(OC)c2c(c1-c1c(C(=O)NCCC(=O)OC(C)(C)CCOc3no[n+]([O-])c3S(=O)(=O)c3ccccc3)cc(OC)c3c1OCO3)OCO2 , IC50: 1.36

Recorded result, O=c1[nH]cc(F)c(=O)[nH]1 [FLUOROURACIL] , IC50: 15.9

Recorded result, COC(=O)c1cc(OC)c2c(c1-c1c(C(=O)NCCC(=O)OCCOc3no[n+]([O-])c3S(=O)(=O)c3ccccc3)cc(OC)c3c1OCO3)OCO2 , IC50: 1.35
